Measurement Target: HRgpA-6H (Porphyromonas gingivalis) (UniProt P28784)
Assay Explanation: ELISA on coated HRgpA-6H
Quantity Kind: OD450nm
One number for each entry.

Sample answers from the record:
KB001 mouse Fab FASEBA VH I31M (Fab, V domains shown) VH: EVQLKQSGPGLVAPSQSLSITCTVSGFSLSMYSVHWVRQPPGKGLEWLGMIWGGGSSDYNSALKSRLSISKDNSKSQVFLKMNSLQTDDTAMYYCARNGNFYAMDYWGQGTSVTVSS VL: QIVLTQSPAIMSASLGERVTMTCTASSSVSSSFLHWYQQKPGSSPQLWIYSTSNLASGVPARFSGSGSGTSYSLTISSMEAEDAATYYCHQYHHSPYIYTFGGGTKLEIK :: 0.522
KB001 mouse Fab FASEBA VH S30E (Fab, V domains shown) VH: EVQLKQSGPGLVAPSQSLSITCTVSGFSLEIYSVHWVRQPPGKGLEWLGMIWGGGSSDYNSALKSRLSISKDNSKSQVFLKMNSLQTDDTAMYYCARNGNFYAMDYWGQGTSVTVSS VL: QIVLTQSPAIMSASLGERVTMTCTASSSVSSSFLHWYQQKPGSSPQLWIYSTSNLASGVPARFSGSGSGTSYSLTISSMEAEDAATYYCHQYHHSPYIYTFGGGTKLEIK :: 0.567
KB001 mouse Fab FASEBA VH G26N (Fab, V domains shown) VH: EVQLKQSGPGLVAPSQSLSITCTVSNFSLSIYSVHWVRQPPGKGLEWLGMIWGGGSSDYNSALKSRLSISKDNSKSQVFLKMNSLQTDDTAMYYCARNGNFYAMDYWGQGTSVTVSS VL: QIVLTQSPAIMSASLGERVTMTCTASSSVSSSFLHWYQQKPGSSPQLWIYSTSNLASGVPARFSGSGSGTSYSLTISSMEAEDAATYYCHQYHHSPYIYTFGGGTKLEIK :: 0.445
KB001 mouse Fab FASEBA VH S57A (Fab, V domains shown) VH: EVQLKQSGPGLVAPSQSLSITCTVSGFSLSIYSVHWVRQPPGKGLEWLGMIWGGGSADYNSALKSRLSISKDNSKSQVFLKMNSLQTDDTAMYYCARNGNFYAMDYWGQGTSVTVSS VL: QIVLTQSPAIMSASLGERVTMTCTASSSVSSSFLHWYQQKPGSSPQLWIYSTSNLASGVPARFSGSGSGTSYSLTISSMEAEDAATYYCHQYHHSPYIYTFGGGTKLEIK :: 0.922

-- ask Sample KB001 mouse Fab FASEBA VH D58G (Fab, V domains shown) VH: EVQLKQSGPGLVAPSQSLSITCTVSGFSLSIYSVHWVRQPPGKGLEWLGMIWGGGSSGYNSALKSRLSISKDNSKSQVFLKMNSLQTDDTAMYYCARNGNFYAMDYWGQGTSVTVSS VL: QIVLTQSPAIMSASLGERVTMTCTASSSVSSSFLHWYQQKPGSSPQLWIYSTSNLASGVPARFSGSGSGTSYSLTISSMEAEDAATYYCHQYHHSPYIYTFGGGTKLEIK — what was its OD450nm?
-- reply 0.778

FYI, the data here is from patent US20230365662A1.
